Experiment: Inhibition of AP-1/NF-kappaB transfected in human jurkat T cells assessed as inhibition of transcriptional activation
Type: cell-based
pIC50: −log10 of the molar value.
Readout: pIC50

1) CC1=CC(=O)N(Nc2nc(-c3cccs3)nc3ccc(Cl)cc23)C1=O ... 7.70
2) CCOC(=O)c1cnc(C2CC2)nc1NN1C(=O)C=C(C)C1=O ... 6.00
3) CCOC(=O)c1cnc(-c2cccc([N+](=O)[O-])c2)nc1NN1C(=O)C=C(C)C1=O ... 5.16
4) CC1=CC(=O)N(Nc2nc(-c3cccs3)nc3cc(N(C)C)ccc23)C1=O ... 7.40
5) CC1=CC(=O)N(Nc2nc(-c3cccs3)ncc2C#N)C1=O ... 5.30
6) CCOC(=O)c1cnc(-c2cccc(OC)c2)nc1NN1C(=O)C=C(C)C1=O ... 5.30
7) COc1ccc2c(NN3C(=O)C=C(C)C3=O)nc(-c3cccs3)nc2c1 ... 7.70
8) CC1=CC(=O)N(Nc2nc(-c3cccs3)ncc2-c2nnc(C)o2)C1=O ... 6.52
9) CC1=CC(=O)N(Nc2nc(-c3cccs3)ncc2C2=NCCO2)C1=O ... 6.70
10) CCOC(=O)c1cnc(-c2ccc(C)s2)nc1NN1C(=O)C=C(C)C1=O ... 6.70
11) CCOC(=O)c1cnc(-c2csc(C)n2)nc1NN1C(=O)C=C(C)C1=O ... 5.10
12) CCOC(=O)c1cnc(SC)nc1NN1C(=O)C=C(C)C1=O ... 6.70
13) CC1=CC(=O)N(Nc2nc(-c3cccs3)nc3ccccc23)C1=O ... 7.22
14) CC1=CC(=O)N(Nc2nc(C(F)(F)F)nc3ccc(O)cc23)C1=O ... 7.00
15) CCOC(=O)c1cnc(-n2nc(C)cc2C)nc1NN1C(=O)C=C(C)C1=O ... 5.00
16) CCOC(=O)c1cnc(-c2ccccc2)nc1N(C)N1C(=O)C=C(C)C1=O ... 5.70
17) CC1=CC(=O)N(Nc2nc(C(F)(F)F)nc3ccc(S(C)(=O)=O)cc23)C1=O ... 5.05
18) COc1cc2c(NN3C(=O)C=C(C)C3=O)nc(-c3cccs3)nc2c(OC)c1OC ... 7.40
19) CCOC(=O)c1cnc(-c2ccc(F)cc2)nc1N(C)N1C(=O)C=C(C)C1=O ... 5.52
20) CC1=CC(=O)N(Nc2nc(-c3cccs3)nc3cccc(C)c23)C1=O ... 7.70
21) CC1=CC(=O)N(Nc2nc(C(F)(F)F)nc3ccccc23)C1=O ... 7.00
